Data credit: ChEMBL document CHEMBL3885881

species on record: Rattus norvegicus; experiment: DrugMatrix - Regimen: Daily Repeat; format: toxicity, organism-based, Sprague-Dawley; design: regimen Daily Repeat, gender Male, age 6-8 weeks; details: in vivo, ip, 5 mg/kg, […], tissue Blood, route intraperitoneal, dose level High, time 14 day, vehicle 100 % SALINE
measured.attribute: ABSOLUTE MONOCYTE (cells/µL)
All answers are understood in cells/µL, so give the number only.

[Q] Quick one: ABSOLUTE MONOCYTE for CARBOPLATIN ?
[A] 260

* * *

organism: Rattus norvegicus; assay: DrugMatrix - Regimen: Daily Repeat; type: toxicity, organism-based, Sprague-Dawley; design: regimen Daily Repeat, gender Male, age 6-8 weeks; conditions: in vivo, po, 0 mg/kg, 120 h, tissue Plasma, route oral GAVAGE, dose level Control, time 5 day, vehicle .5 % CMC
TOTAL PROTEIN reference
All answers are understood in G/DL, so give the number only.

[Q] Quick one: TOTAL PROTEIN for CC1(C)[C@H]2CC[C@]1(C)C(=O)C2 [(-)-CAMPHOR] ?
[A] 5.98

* * *

species on record: Rattus norvegicus; experiment: DrugMatrix - Regimen: Daily Repeat; type: toxicity, organism-based, Sprague-Dawley; set-up: regimen Daily Repeat, gender Male, age 6-8 weeks; conditions: in vivo, po, 40 mg/kg, 72 h, tissue Blood, route oral GAVAGE, dose level Low, time 3 day, […]
measured.attribute: ABSOLUTE LYMPHOCYTE

[
  {
    "molecule": "CN(C)CCCC1(c2ccc(F)cc2)OCc2cc(C#N)ccc21 (configuration not stated)",
    "ABSOLUTE LYMPHOCYTE": "12847 CELLS/uL"
  }
]

Here's the next entry for you.
[Q] Quick one: ABSOLUTE LYMPHOCYTE for C=CCN ?
[A] 9180 cells/µL

* * *

CREATININE reference
species on record: Rattus norvegicus; assay: DrugMatrix - Regimen: Daily Repeat; format: toxicity, organism-based, Sprague-Dawley; set-up: regimen Daily Repeat, gender Male, age 6-8 weeks; conditions: in vivo, po, 0 mg/kg, 120 h, tissue Plasma, route oral GAVAGE, dose level Control, time 5 day, vehicle 100 % WATER
All answers are understood in mg/dL, so give the number only.

Some compounds with known CREATININE results, for comparison:
[
  {
    "compound": "Nc1ccc(S(=O)(=O)Nc2ccnn2-c2ccccc2)cc1",
    "measured.attribute": "CREATININE",
    "data.value": 0.18
  },
  {
    "compound": "CC1COc2c(N3CCN(C)CC3)c(F)cc3c(=O)c(C(=O)O)cn1c23 (stereo not given)",
    "measured.attribute": "CREATININE",
    "data.value": 0.23
  },
  {
    "compound": "CN1CCC[C@H]1c1cccnc1",
    "measured.attribute": "CREATININE",
    "data.value": 0.23
  }
]

[Q] Quick one: CREATININE for Cc1cc(NS(=O)(=O)c2ccc(N)cc2)no1 ?
[A] 0.21

[Q] Quick one: CREATININE for COc1ccc(C(CN(C)C)C2(O)CCCCC2)cc1 (stereo not given) ?
[A] 0.21

[Q] Quick one: CREATININE for CC1(C)S[C@@H]2[C@H](NC(=O)[C@H](N)c3ccc(O)cc3)C(=O)N2[C@H]1C(=O)O ?
[A] 0.25

[Q] Quick one: CREATININE for Clc1ccc(C(c2ccccc2Cl)C(Cl)Cl)cc1 (stereo not given) ?
[A] 0.15

[Q] Quick one: CREATININE for NNC(=O)c1ccncc1 ?
[A] 0.26

* * *

LEUKOCYTE COUNT reference
organism: Rattus norvegicus; experiment: DrugMatrix - Regimen: Daily Repeat; format: toxicity, organism-based, Sprague-Dawley; parameters: regimen Daily Repeat, gender Male, age 6-8 weeks; settings: in vivo, po, 10 mg/kg, 120 h, tissue Blood, route oral GAVAGE, dose level Low, time 5 day, vehicle .5 % CMC
All answers are understood in x10E3/uL, so give the number only.

[
  {
    "compound": "CC(=O)O[C@]1(C(C)=O)CC[C@H]2[C@@H]3C=C(Cl)C4=CC(=O)CC[C@]4(C)[C@H]3CC[C@@]21C [CHLORMADINONE ACETATE]",
    "data.value": 15.77
  },
  {
    "compound": "COc1c(C)c2c(c(O)c1C/C=C(\\C)CCC(=O)OCCN1CCOCC1)C(=O)OC2 [MYCOPHENOLATE MOFETIL]",
    "data.value": 14.83
  },
  {
    "compound": "O=C1CN=C(c2ccccc2)c2cc([N+](=O)[O-])ccc2N1 [NITRAZEPAM]",
    "data.value": 12.37
  }
]

Here's the next entry for you.
[Q] Quick one: LEUKOCYTE COUNT for NS(=O)(=O)c1cc2c(cc1Cl)NCNS2(=O)=O [HYDROCHLOROTHIAZIDE] ?
[A] 13.63

* * *

organism: Rattus norvegicus; test: DrugMatrix - Regimen: Daily Repeat; type: toxicity, organism-based, Sprague-Dawley; design: regimen Daily Repeat, gender Male, age 6-8 weeks; settings: in vivo, po, 0 mg/kg, 120 h, tissue Plasma, route oral GAVAGE, dose level Control, time 5 day, […]
measured.attribute: CHLORIDE (MEQ/L)
All answers are understood in MEQ/L, so give the number only.

Some molecules with known CHLORIDE results, for comparison:
[
  {
    "molecule": "COCc1c(C(C)C)nc(C(C)C)c(/C=C/[C@@H](O)C[C@@H](O)CC(=O)O)c1-c1ccc(F)cc1 [CERIVASTATIN]",
    "display.unit": "MEQ/L",
    "CHLORIDE": 100.33
  },
  {
    "molecule": "O=[N+]([O-])c1cc([As](=O)(O)O)ccc1O [ROXARSONE]",
    "display.unit": "MEQ/L",
    "CHLORIDE": 108.4
  },
  {
    "molecule": "CN(C)CCCC1(c2ccc(F)cc2)OCc2cc(C#N)ccc21 (stereo not given) [CITALOPRAM]",
    "display.unit": "MEQ/L",
    "CHLORIDE": 98.33
  },
  {
    "molecule": "c1ccc2[nH]c(-c3cscn3)nc2c1 [THIABENDAZOLE]",
    "display.unit": "MEQ/L",
    "CHLORIDE": 98.67
  }
]

[Q] Quick one: CHLORIDE for CSc1ccc2c(c1)N(CCC1CCCCN1C)c1ccccc1S2 (stereo not given) [THIORIDAZINE] ?
[A] 102.33

* * *

MONOCYTE reference
organism: Rattus norvegicus; experiment: DrugMatrix - Regimen: Daily Repeat; format: toxicity, organism-based, Sprague-Dawley; set-up: regimen Daily Repeat, gender Male, age 6-8 weeks; conditions: in vivo, po, 0 mg/kg, 72 h, tissue Blood, route oral GAVAGE, dose level Control, time 3 day, vehicle 100 % WATER
All answers are understood in %, so give the number only.

Some compounds with known MONOCYTE results, for comparison:
[
  {
    "compound": "NC(=O)c1ncn([C@@H]2O[C@H](CO)[C@@H](O)[C@H]2O)n1",
    "data.value": 1.5
  },
  {
    "compound": "CC1(C)S[C@@H]2[C@H](NC(=O)[C@H](N)c3ccc(O)cc3)C(=O)N2[C@H]1C(=O)O",
    "data.value": 2.83
  },
  {
    "compound": "Cc1cc(NS(=O)(=O)c2ccc(N)cc2)no1",
    "data.value": 1.33
  },
  {
    "compound": "Fc1ccc([C@@H]2CCNC[C@H]2COc2ccc3c(c2)OCO3)cc1",
    "data.value": 0.5
  },
  {
    "compound": "CNCCC=C1c2ccccc2CCc2ccccc21",
    "data.value": 0.5
  },
  {
    "compound": "COc1cccc(C2(O)CCCCC2CN(C)C)c1 (stereo not given)",
    "data.value": 0.5
  },
  {
    "compound": "CC(CCc1ccccc1)NCC(O)c1ccc(O)c(C(N)=O)c1 (stereo not given)",
    "data.value": 0.83
  },
  {
    "compound": "NNC(=O)c1ccncc1",
    "data.value": 2.67
  }
]

[Q] Quick one: MONOCYTE for CC1COc2c(N3CCN(C)CC3)c(F)cc3c(=O)c(C(=O)O)cn1c23 (stereo not given) ?
[A] 0.67

[Q] Quick one: MONOCYTE for CC(C)(S)[C@@H](N)C(=O)O ?
[A] 0.17

* * *

species on record: Rattus norvegicus; experiment: DrugMatrix - Regimen: Daily Repeat; assay type: toxicity, organism-based, Sprague-Dawley; set-up: regimen Daily Repeat, gender Male, age 6-8 weeks; details: in vivo, ip, 0 mg/kg, […], tissue Blood, route intraperitoneal, dose level Control, time 28 day, vehicle 100 % SALINE
measured.attribute: ABSOLUTE EOSINOPHIL (cells/µL)
All answers are understood in cells/µL, so give the number only.

[Q] Quick one: ABSOLUTE EOSINOPHIL for NCC[C@H](O)C(=O)N[C@@H]1C[C@H](N)[C@@H](O[C@H]2O[C@H](CN)[C@@H](O)[C@H](O)[C@H]2O)[C@H](O)[C@H]1O[C@H]1O[C@H](CO)[C@@H](O)[C@H](N)[C@H]1O ?
[A] 110
